# System: hiPSC-derived neurons co-cultured with human primary astrocytes in 3D
# Experiment description: Ca2+ transient oscillation assay (FDSS), 3D spheroids
# Format: cell-based
# Details: 3 µM; 60 min
Value type: Peak-to-peak interval - 3D Mean (% change from baseline)
Give the value, in units of % change from baseline, as a plain number.

These solved cases illustrate the format of a correct answer.
Clc1ccc2c(c1)C(N1CCNCC1)=Nc1ccccc1O2
−6.6
C[C@]12N[C@H](Cc3ccccc31)c1ccccc12
−100.0
NCCCC(=O)O
−2.5
CC1(C)S[C@@H]2[C@H](NC(=O)[C@H](N)c3ccc(O)cc3)C(=O)N2[C@H]1C(=O)O
−1.2

Proceed to the following item.
# input Return the recorded Peak-to-peak interval - 3D Mean value; entry: CN(C)CCCN1c2ccccc2Sc2ccc(Cl)cc21
# output 6.0

Where do these numbers come from? They come from paper PMC10046961.
